Reported ECL signal values are given for each entry in this list.
- System tested: T1, Recombinant Human DLL4 (R&D Systems Cat#1506-D4/CF) (human, UniProt Q9NR61 27-524)
- T1 construct: Bought recombinant protein; also called delta-like protein 4; rHuman DLL4
- Protocol description: ECL (MSD) multispot binding assay, DLL4 spotted on plate, Fab in solution
Number, no unit, nothing else.

Take a look at these entries with their results.
{"Binder": "Fab VH1-46_IGHD6-6*01_IGHJ1*01 S102A/S103P/S104F/H111F (APFF) & L6_IGKJ1*01 S28F (Fab, V domains shown, Tested as a Fab; Expressed in E. coli from Plasmid A (CH1 with His6 and Flag tags) and Plasmid C (kappa CL); also called APFF & S28F) VH: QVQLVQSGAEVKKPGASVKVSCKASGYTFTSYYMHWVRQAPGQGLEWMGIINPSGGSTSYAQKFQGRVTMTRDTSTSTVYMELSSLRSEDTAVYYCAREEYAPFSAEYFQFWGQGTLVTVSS VL: EIVLTQSPATLSLSPGERATLSCRASQFVSSYLAWYQQKPGQAPRLLIYDASNRATGIPARFSGSGSGTDFTLTISSLEPEDFAVYYCQQRSNWPPWTFGQGTKVEIKR", "ECL signal": 134000}
{"Binder": "Fab VH1-46_IGHD6-6*01_IGHJ1*01 S102A/S103P/S104F (APF) & L6_IGKJ1*01 S30L (Fab, V domains shown, Tested as a Fab; Expressed in E. coli from Plasmid A (CH1 with His6 and Flag tags) and Plasmid C (kappa CL); also called APF & S30L) VH: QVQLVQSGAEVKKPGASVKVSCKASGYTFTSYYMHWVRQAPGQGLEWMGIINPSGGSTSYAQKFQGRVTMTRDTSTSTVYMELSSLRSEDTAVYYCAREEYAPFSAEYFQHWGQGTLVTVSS VL: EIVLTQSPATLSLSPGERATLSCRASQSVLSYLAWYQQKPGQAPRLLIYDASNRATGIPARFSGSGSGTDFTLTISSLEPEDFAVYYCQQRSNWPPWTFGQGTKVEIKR", "ECL signal": 1630}

State the recorded ECL signal for this entry: Fab VH1-46_IGHD6-6*01_IGHJ1*01 S102A/S103P/S104F (APF) & L6_IGKJ1*01 S30T (Fab, V domains shown, Tested as a Fab; Expressed in E. coli from Plasmid A (CH1 with His6 and Flag tags) and Plasmid C (kappa CL); also called APF & S30T) VH: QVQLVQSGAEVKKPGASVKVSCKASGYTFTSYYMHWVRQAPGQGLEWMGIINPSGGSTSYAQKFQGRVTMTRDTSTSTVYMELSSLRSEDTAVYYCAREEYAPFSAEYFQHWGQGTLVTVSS VL: EIVLTQSPATLSLSPGERATLSCRASQSVTSYLAWYQQKPGQAPRLLIYDASNRATGIPARFSGSGSGTDFTLTISSLEPEDFAVYYCQQRSNWPPWTFGQGTKVEIKR 1020
